Values were extracted from PubChem BioAssay AID720504.

target: Serine/threonine-protein kinase PLK1 (Homo sapiens) (UniProt P53350); assay: qHTS for Inhibitors of PLK1-PDB (polo-like kinase 1 - polo-box domain): Primary Screen; conditions: Plk1 PBD binding of FITC phosphopeptide, fluorescence polarization; note: series mostly up to about 57 µM; % is set by controls: 0 for no effect and ±100 for the full control effect; nearly all actives have a fitted effect of over 65% in size
Sequence (P53350 whole entry, looked up, the tested form may be a part): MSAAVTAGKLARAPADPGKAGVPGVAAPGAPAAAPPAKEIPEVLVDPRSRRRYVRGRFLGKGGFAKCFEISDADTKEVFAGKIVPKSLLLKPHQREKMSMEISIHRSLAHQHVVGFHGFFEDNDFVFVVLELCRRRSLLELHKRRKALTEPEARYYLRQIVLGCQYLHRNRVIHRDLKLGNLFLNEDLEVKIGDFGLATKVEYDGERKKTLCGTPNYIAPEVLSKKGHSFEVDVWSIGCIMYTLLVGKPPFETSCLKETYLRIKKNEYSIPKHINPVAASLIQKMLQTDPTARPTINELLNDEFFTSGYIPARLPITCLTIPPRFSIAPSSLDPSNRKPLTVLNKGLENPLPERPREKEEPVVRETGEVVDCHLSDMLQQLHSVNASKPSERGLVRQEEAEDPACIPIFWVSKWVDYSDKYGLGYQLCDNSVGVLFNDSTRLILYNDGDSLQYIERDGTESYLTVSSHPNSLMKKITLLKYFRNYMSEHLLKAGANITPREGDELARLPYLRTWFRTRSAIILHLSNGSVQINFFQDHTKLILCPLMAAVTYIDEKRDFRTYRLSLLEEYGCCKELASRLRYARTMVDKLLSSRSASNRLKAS
About 10,000 (2.8%) of roughly 360,000 compounds were called active. Roughly 4% stayed inconclusive and do not appear here. The entries come from a sample that favours actives as a whole.
VALUE_TYPE: max response, negative = inhibition (%)

INSERT INTO results (molecule, measured) VALUES
  ('O=C(O)c1ccccc1/C=N/Nc1ccc(S(=O)(=O)Nc2ccc(Cl)cc2)cc1[N+](=O)[O-]', -22.4),
  ('Cc1cc(C)nc(N(C#N)CC(=O)Nc2ccccc2)n1', -10.2),
  ('CCn1c(CNC(=O)c2ccccc2)nnc1SCC(=O)N1CCN(c2ccccc2)CC1', -1.21),
  ('CCOC(=O)c1c(C)[nH]c(C)c1C(=O)COC(=O)/C=C/c1cccc([N+](=O)[O-])c1', 1.23),
  ('CS(=O)(=O)N1CCCCC1c1cc(C(=O)NCc2ccccc2)no1 (stereo unspecified)', -4.51),
  ('O=C(CCCN1C(=O)C(c2ccccc2)Oc2cccnc21)Nc1ccccc1Br (stereo unspecified)', 3.26),
  ('CCOc1ccc(N2CC(C(=O)NCc3ccccn3)CC2=O)cc1 (stereo unspecified)', 6.65),
  ('CCc1ccc([C@@H]2CC(=O)[C@@H]3CN(S(=O)(=O)c4ccc(C)cc4)[C@H](c4ccc(Cl)cc4)C[C@@H]3N2S(=O)(=O)c2ccc(C)cc2)cc1', 3.16),
  ('O=C(OCc1ccccc1)N1CCC2CC1c1ccc(-c3ccc4c(c3)OCO4)cc12 (stereo unspecified)', 2.15),
  ('COc1ccc(NC(=O)C[C@H]2C(=O)N(CCc3ccccc3)C[C@@H]2C)cc1', -7.3),
  ('CCc1nc2c(OCCOc3ccccc3)cccn2c1N(C)C(=O)c1ccc(OC)cc1', -8.42),
  ('Nc1nc2c(ncn2[C@@H]2O[C@H](CNCc3ccc(OCCCN4CCOCC4)cc3)[C@@H](O)[C@H]2O)c(=O)[nH]1', -2.1),
  ('CC1(C(=O)Nc2ccc3c(c2)OCCO3)CCN1C(=O)Cc1cc(F)ccc1F (stereo unspecified)', 2.25),
  ('COCOCCn1cc(CN2CCS(=O)(=O)N(Cc3ccc(-c4ccccc4)cc3)C(CC(C)C)C2=O)nn1 (stereo unspecified)', -0.127),
  ('O=C(CSc1nc2ccccc2o1)N1CCN(c2ccccc2)CC1', -6.93),
  ('C=CCOc1c(Br)cc(/C=N\n2nnnc2N)cc1OC', -13.9),
  ('COc1ccc(C2=NN(C(=O)CCC(=O)O)C(c3cccs3)C2)cc1OC (stereo unspecified)', -7.47),
  ('Cc1cc(C(F)(F)F)nc(SCC(=O)Nc2nccs2)n1', -4.23),
  ('CC(C)C1CC2=C(C(=O)OC(C)(C)O2)C(c2ccc(F)cc2)O1 (stereo unspecified)', 2.13),
  ('CC(=O)NC(c1ccccc1)c1nc(-c2cccc(C(C)C)c2)cs1 (stereo unspecified)', 4.75),
  ('CCCCN1C(=O)C(CC(=O)NCc2cccs2)CC(C(=O)N2CCOCC2)=C1C (stereo unspecified)', 5.78),
  ('CC(=O)Nc1cccc(-c2cc(NC=O)c3ncc(-c4ccc(F)c(Cl)c4)n3c2)c1', -21.6),
  ('CSC1=NN(c2ccccc2)CN(c2ccccc2)N1C', 3.5),
  ('COCCNC(=O)C1CCCN(Cc2ccccc2Cl)CC1 (stereo unspecified)', -4.77),
  ('COc1ccc(S(=O)(=O)Nc2ccc3cn[nH]c3c2)cc1[N+](=O)[O-]', -11.6),
  ('CCCNC(=O)C1(C)CCN1C(=O)C1(c2ccccc2)CC1 (stereo unspecified)', -4.48),
  ('Cn1c(CNC(=O)c2ccco2)nnc1SCC(=O)N1CCN(c2ccccc2)CC1', -4.04),
  ('O=C(Nc1ccc(F)cc1)C(CCc1ccccc1)N1CCN(CC(=O)N2CCCC2)CC1 (stereo unspecified)', -3.84),
  ('COc1ccc(C(=O)NC(=O)CSc2nnc(-c3ccco3)n2-c2ccccc2)cc1', -12.5),
  ('CC1(C(=O)NS(=O)(=O)Cc2cccc(Cl)c2)CCN1C(=O)Cc1ccccc1 (stereo unspecified)', 0.171),
  ('CCOC(=O)[C@H]1Nc2ccc(Cl)cc2[C@@H]2[C@H]1C1CC(c3ccccc31)N2C(=O)OCc1ccccc1 (stereo partly specified)', -10.8),
  ('C[C@@H]1CN([C@H](C)CO)C(=O)CCCn2nncc2CO[C@@H]1CN(C)C(=O)OCc1ccccc1', -21.8),
  ('COc1cc(F)ccc1-c1cc(C(=O)NCC2CCCCC2)[nH]n1', 1.4),
  ('O=C(NCCO)c1cccc(-c2cccc3nccn23)c1', -13.3),
  ('COc1ccc(NC(=O)C(c2ccncc2)n2c(=O)c(-c3cc4ccccc4[nH]3)nc3ccccc32)cc1 (stereo unspecified)', 12.4),
  ('COc1ccc(Cn2c(=O)oc3ccccc32)cc1', -4.16);

====

molecular target: Serine/threonine-protein kinase PLK1 (Homo sapiens) (UniProt P53350); experiment: qHTS for Inhibitors of PLK1-PDB (polo-like kinase 1 - polo-box domain): Primary Screen; details: Plk1 PBD binding of FITC phosphopeptide, fluorescence polarization; note: series mostly up to about 57 µM; % is set by controls: 0 for no effect and ±100 for the full control effect; nearly all actives have a fitted effect of over 65% in size
The campaign covered roughly 360,000 compounds. About 10,000 (2.8%) were called active. Roughly 4% stayed inconclusive and do not appear here. For the sample, actives were picked, then their nearest neighbours and some compounds at random.
VALUE_TYPE: max response, negative = inhibition (%)

INSERT INTO results (molecule, test_target, measured) VALUES
  ('CCOC(=O)CSc1nc(C)c(Oc2ccc(Cl)cc2Cl)c(=O)[nH]1', 'Serine/threonine-protein kinase PLK1 (Homo sapiens) (UniProt P53350)', -19.2),
  ('O=c1[nH]c2ccccc2s1', 'Serine/threonine-protein kinase PLK1 (Homo sapiens) (UniProt P53350)', -9.39),
  ('Cc1ccccc1CC1(CO)CCCN(C(=O)c2cc(-c3ccccc3)no2)C1 (stereo not drawn)', 'Serine/threonine-protein kinase PLK1 (Homo sapiens) (UniProt P53350)', -5.7),
  ('Cc1ccc(-c2ccc(CN3C(C(C)C)C(=O)N(Cc4cn(CCC5OCCCO5)nn4)CCS3(=O)=O)cc2)cc1 (stereo not drawn)', 'Serine/threonine-protein kinase PLK1 (Homo sapiens) (UniProt P53350)', -2.35),
  ('CC(=O)Nc1ccc(S(=O)(=O)Oc2ccc(Br)cc2C(=S)N2CCOCC2)cc1', 'Serine/threonine-protein kinase PLK1 (Homo sapiens) (UniProt P53350)', -17.8),
  ('CC1(C(=O)NCc2ccc3c(c2)OCO3)CCN1C(=O)Cc1cccc2ccccc12 (stereo not drawn)', 'Serine/threonine-protein kinase PLK1 (Homo sapiens) (UniProt P53350)', -5.76),
  ('COc1ccc(-c2nc3ccc(Br)cn3c2Cc2ccc(C)cc2)cc1OC', 'Serine/threonine-protein kinase PLK1 (Homo sapiens) (UniProt P53350)', -11),
  ('COc1cc(Cn2c3ccc(NC(=O)CC(C)c4ccccc4)cc3c(=O)n2C)ccc1F (stereo not drawn)', 'Serine/threonine-protein kinase PLK1 (Homo sapiens) (UniProt P53350)', -6.73),
  ('COc1cc(NC(=O)C2=C(C)OCCS2)c(Cl)cc1C(=O)NCCCN1CCCC(C)C1 (stereo not drawn)', 'Serine/threonine-protein kinase PLK1 (Homo sapiens) (UniProt P53350)', -4.33),
  ('O=c1[nH][nH]c2c1[C@H](c1ccc(Cl)cc1)O[C@H](CCc1ccccc1)C2', 'Serine/threonine-protein kinase PLK1 (Homo sapiens) (UniProt P53350)', -16.9),
  ('COc1ccc(NS(=O)(=O)c2ccc(Oc3c(C#N)cccc3C#N)cc2)cc1', 'Serine/threonine-protein kinase PLK1 (Homo sapiens) (UniProt P53350)', -0.548),
  ('C=CCOc1ccc(/C=N/n2cncn2)cc1OC', 'Serine/threonine-protein kinase PLK1 (Homo sapiens) (UniProt P53350)', -1.5),
  ('CCOc1ccccc1NC(=O)CCS(=O)(=O)c1cccc2nsnc12', 'Serine/threonine-protein kinase PLK1 (Homo sapiens) (UniProt P53350)', 7.52),
  ('C[C@H](CO)N1C[C@H](C)[C@@H](CN(C)C(=O)c2cnccn2)Oc2ncc(Br)cc2C1=O', 'Serine/threonine-protein kinase PLK1 (Homo sapiens) (UniProt P53350)', -5.95),
  ('C[C@H]1CN([C@@H](C)CO)C(=O)c2cc(-c3cccc(F)c3)cnc2O[C@@H]1CN(C)S(C)(=O)=O', 'Serine/threonine-protein kinase PLK1 (Homo sapiens) (UniProt P53350)', -9.21),
  ('COc1ccc(/C=C(\C#N)C(=O)OCC(=O)N(C)C2CCS(=O)(=O)C2)cc1 (stereo not drawn)', 'Serine/threonine-protein kinase PLK1 (Homo sapiens) (UniProt P53350)', -10.5),
  ('Cc1c(C(=O)c2cccc([N+](=O)[O-])c2)c2ccccn2c1CCC#N', 'Serine/threonine-protein kinase PLK1 (Homo sapiens) (UniProt P53350)', -8.17),
  ('CCOc1ccc(N(CC)S(=O)(=O)c2cccc3nsnc23)cc1', 'Serine/threonine-protein kinase PLK1 (Homo sapiens) (UniProt P53350)', -8.88),
  ('NC(c1ccccc1)c1csc(NC(=O)Nc2cccc(C(F)(F)F)c2)n1 (stereo not drawn)', 'Serine/threonine-protein kinase PLK1 (Homo sapiens) (UniProt P53350)', -4.96),
  ('CC[C@@H](C)[C@H](NC(=O)CCc1c(C)c2cc3c4c(oc3c(C)c2oc1=O)CCCC4)C(=O)O', 'Serine/threonine-protein kinase PLK1 (Homo sapiens) (UniProt P53350)', -24),
  ('CN(Cc1cn(Cc2ccc(C(F)(F)F)cc2)nn1)C1CN(Cc2cn(Cc3ccc(C(F)(F)F)cc3)nn2)S(=O)(=O)C1 (stereo not drawn)', 'Serine/threonine-protein kinase PLK1 (Homo sapiens) (UniProt P53350)', -2.76),
  ('O=C(Oc1ccccc1Cl)c1ccc(N2CCOCC2)c([N+](=O)[O-])c1', 'Serine/threonine-protein kinase PLK1 (Homo sapiens) (UniProt P53350)', -14.3),
  ('Cc1noc(C)c1CCC(=O)N1CCCC(CO)(Cc2ccccc2)C1 (stereo not drawn)', 'Serine/threonine-protein kinase PLK1 (Homo sapiens) (UniProt P53350)', -15.4),
  ('Cc1c(C)c2cc3c4c(oc3c(C)c2oc1=O)CCCC4', 'Serine/threonine-protein kinase PLK1 (Homo sapiens) (UniProt P53350)', -0.836),
  ('COCCCn1cc(CN2CC(N(C)C)CS2(=O)=O)nn1 (stereo not drawn)', 'Serine/threonine-protein kinase PLK1 (Homo sapiens) (UniProt P53350)', 2.09),
  ('CCN(CC)CCN(C(=O)c1ccc2c(c1)CCCC2)c1nc2c(OC)cccc2s1', 'Serine/threonine-protein kinase PLK1 (Homo sapiens) (UniProt P53350)', -2.72),
  ('OC[C@@H]1CN(Cc2ccc(F)cc2)C[C@H](n2cnc3c(NC4CCCC4)ncnc32)O1', 'Serine/threonine-protein kinase PLK1 (Homo sapiens) (UniProt P53350)', -5.68),
  ('C=CCOc1ccc(/C=N/NC(=O)C(C)Sc2ccccn2)cc1OCC (stereo not drawn)', 'Serine/threonine-protein kinase PLK1 (Homo sapiens) (UniProt P53350)', -12.5),
  ('CCCCCc1c(Cc2ccccc2)ncn1CCc1ccccc1OC', 'Serine/threonine-protein kinase PLK1 (Homo sapiens) (UniProt P53350)', -12.9),
  ('Cc1nnc(SCC(=O)N2CCOCC2)[nH]c1=O', 'Serine/threonine-protein kinase PLK1 (Homo sapiens) (UniProt P53350)', -7.51),
  ('COc1ccccc1C(=O)Nc1ccc(C)c(S(=O)(=O)N2CCCCC2)c1', 'Serine/threonine-protein kinase PLK1 (Homo sapiens) (UniProt P53350)', -5.05),
  ('Nc1ncnc2c1ncn2[C@@H]1O[C@H](C(=O)N2CCCN(Cc3ccccc3F)CC2)[C@@H](O)[C@H]1O', 'Serine/threonine-protein kinase PLK1 (Homo sapiens) (UniProt P53350)', -0.717),
  ('O=S(=O)(c1cccc(C(F)(F)F)c1)N1c2ccccc2-n2cccc2C1c1cccnc1 (stereo not drawn)', 'Serine/threonine-protein kinase PLK1 (Homo sapiens) (UniProt P53350)', 4.88);
